Would you kindly list inhibition at 0.1 µM for each of these compounds?
# TESTED_SYSTEM: human placenta aldose reductase (Homo sapiens)
# Construct: a human placenta aldose reductase was purified to a single protein; from tissue; host or cells: human placenta
# PROTOCOL_DETAILS: Aldose reductase-inhibitory activity (rate of disappearance of NADPH, glyceraldehyde substrate)
# Type: biochemical
# CONDITION_DETAILS: 10^-7(M)
Your reply should be a number followed by the unit it is expressed in.

q: I have this compound here, O=C1NC(=S)SC1=C1CCCS(=O)(=O)c2ccccc21 , and I need its recorded inhibition at 0.1 µM.
a: 23%

q: I have this compound here, O=C(O)c1ccc(N2C(=O)C(=C3CCS(=O)(=O)c4ccccc43)SC2=S)cc1 , and I need its recorded inhibition at 0.1 µM.
a: 15%

q: I have this compound here, COc1cccc2c1CCCC2=C1SC(=S)N(CC(=O)O)C1=O , and I need its recorded inhibition at 0.1 µM.
a: 40%

q: I have this compound here, O=C1NC(=O)/C(=C2\CCS(=O)(=O)c3ccccc32)S1 [Example 99B] , and I need its recorded inhibition at 0.1 µM.
a: 42%

q: I have this compound here, COc1ccc2c(c1)CCCC2=C1SC(=S)N(CC(=O)O)C1=O , and I need its recorded inhibition at 0.1 µM.
a: 65%

q: I have this compound here, N=C1NC(=O)C(=C2CCS(=O)(=O)c3ccccc32)S1 , and I need its recorded inhibition at 0.1 µM.
a: 19%

q: I have this compound here, O=C1NC(=S)SC1=C1CCSc2ccccc21 , and I need its recorded inhibition at 0.1 µM.
a: 29%

q: I have this compound here, O=C1NC(=O)[C@@]2(CCOc3ccc(F)cc32)N1 [Sorbinil, reference compound] , and I need its recorded inhibition at 0.1 µM.
a: 15%

q: I have this compound here, O=C1NC(=S)SC1=C1C=CS(=O)(=O)c2ccccc21 , and I need its recorded inhibition at 0.1 µM.
a: 37%

###

# TESTED_SYSTEM: human placenta aldose reductase (Homo sapiens, UniProt P15121)
# Construct: a human placenta aldose reductase was purified to a single protein; from tissue; host or cells: human placenta
# PROTOCOL_DETAILS: Aldose reductase-inhibitory activity (rate of disappearance of NADPH, glyceraldehyde substrate)
# Format: biochemical
# CONDITION_DETAILS: 10^-6(M)
Would you kindly list inhibition at 1 µM for each of these molecules?
Your reply should be a number followed by the unit it is expressed in.

q: I have this molecule here, O=C1NC(=S)SC1=C1CCCS(=O)(=O)c2ccccc21 , and I need its recorded inhibition at 1 µM.
a: 65%

q: I have this molecule here, O=C1NC(=S)SC1=C1C(=O)Nc2ccc(Cl)cc21 , and I need its recorded inhibition at 1 µM.
a: 72%

q: I have this molecule here, O=C1NC(=S)SC1=C1CCSc2ccccc21 , and I need its recorded inhibition at 1 µM.
a: 83%

q: I have this molecule here, O=C(O)c1ccc(N2C(=O)C(=C3CCS(=O)(=O)c4ccccc43)SC2=S)cc1 , and I need its recorded inhibition at 1 µM.
a: 30%

q: I have this molecule here, O=C1NC(=S)SC1=C1C(=O)Nc2ccccc21 , and I need its recorded inhibition at 1 µM.
a: 56%

q: I have this molecule here, O=C1NC(=O)/C(=C2\CCS(=O)(=O)c3ccccc32)S1 [Example 99B] , and I need its recorded inhibition at 1 µM.
a: 87%

q: I have this molecule here, O=C1NC(=O)[C@@]2(CCOc3ccc(F)cc32)N1 [Sorbinil, reference compound] , and I need its recorded inhibition at 1 µM.
a: 53.6%

q: I have this molecule here, COc1ccc2c(c1)CCCC2=C1SC(=S)N(CC(=O)O)C1=O , and I need its recorded inhibition at 1 µM.
a: 93%

q: I have this molecule here, COc1cccc2c1CCCC2=C1SC(=S)N(CC(=O)O)C1=O , and I need its recorded inhibition at 1 µM.
a: 89%

###

# TESTED_SYSTEM: human placenta aldose reductase (Homo sapiens)
# Construct: a human placenta aldose reductase was purified to a single protein; from tissue; host or cells: human placenta
# PROTOCOL_DETAILS: Aldose reductase-inhibitory activity (rate of disappearance of NADPH, glyceraldehyde substrate)
# Assay type: biochemical
# CONDITION_DETAILS: 10^-6(M)
# Protocol: The compound of the present invention, aldose reductase and nicotinamide adenine dinucleotide phosphate (NADPH) are dissolved in a buffer of pH 6.2 and incubated for 10 minutes at 25°C; glyceraldehyde is added thereto to start the reaction, and the rate of disappearance of NADPH is defined to be the enzyme activity of the aldose reductase.
OBSERVATION_TYPE: inhibition at 1 µM (%)
Your answer should be a plain number; it is taken to be in %.

q: Form entry - test system: human placenta aldose reductase (Homo sapiens); read-out: inhibition at 1 µM; compound: O=C1NC(=S)SC1=C1C=CS(=O)(=O)c2ccccc21
a: 53

q: Form entry - test system: human placenta aldose reductase (Homo sapiens); read-out: inhibition at 1 µM; compound: O=C1NC(=S)SC1=C1C(=O)Nc2ccc(Br)cc21
a: 64

q: Form entry - test system: human placenta aldose reductase (Homo sapiens); read-out: inhibition at 1 µM; compound: N=C1NC(=O)C(=C2CCS(=O)(=O)c3ccccc32)S1
a: 65
